# assayProcedure: Pharmacokinetic study in albino rats
# Assay type: in vivo
# experimentalContext: rat, plasma, po, 10 mg/kg
propertyName: Tmax (h)
Output spec: scalar in h, unitless text.

Tmax recorded for this compound, CC(=O)O[C@H]1C(=O)[C@@]2(C)[C@H]([C@H](OC(=O)c3ccccc3)[C@]3(O)C[C@H](OC(=O)[C@H](O)[C@@H](NC(=O)c4ccccc4)c4ccccc4)C(C)=C1C3(C)C)[C@]1(OC(C)=O)CO[C@@H]1C[C@@H]2O [PTL, Paclitaxel] , is 2

---

# assayProcedure: Drug solubility of free PTL and PTL-loaded nanoparticles
# Format: physicochemical
# experimentalContext: phosphate buffer, pH 7.4
propertyName: solubility at 24 h

solubility at 24 h recorded for this compound, CC(=O)O[C@H]1C(=O)[C@@]2(C)[C@H]([C@H](OC(=O)c3ccccc3)[C@]3(O)C[C@H](OC(=O)[C@H](O)[C@@H](NC(=O)c4ccccc4)c4ccccc4)C(C)=C1C3(C)C)[C@]1(OC(C)=O)CO[C@@H]1C[C@@H]2O [PTL, Paclitaxel] , is ~4.5 µg/mL

---

# assayProcedure: Pharmacokinetic study in albino rats
# Format: in vivo
# experimentalContext: rat, plasma, po, 10 mg/kg
propertyName: half-life

half-life recorded for this compound, CC(=O)O[C@H]1C(=O)[C@@]2(C)[C@H]([C@H](OC(=O)c3ccccc3)[C@]3(O)C[C@H](OC(=O)[C@H](O)[C@@H](NC(=O)c4ccccc4)c4ccccc4)C(C)=C1C3(C)C)[C@]1(OC(C)=O)CO[C@@H]1C[C@@H]2O [PTL, Paclitaxel] , is 8.76 h

---

# assayProcedure: Pharmacokinetic study in albino rats
# Assay type: in vivo
# experimentalContext: rat, plasma, po, 10 mg/kg
propertyName: Cmax

Cmax recorded for this compound, CC(=O)O[C@H]1C(=O)[C@@]2(C)[C@H]([C@H](OC(=O)c3ccccc3)[C@]3(O)C[C@H](OC(=O)[C@H](O)[C@@H](NC(=O)c4ccccc4)c4ccccc4)C(C)=C1C3(C)C)[C@]1(OC(C)=O)CO[C@@H]1C[C@@H]2O , is 239 ng/mL

---

# assayProcedure: Pharmacokinetic study in albino rats
# Format: in vivo
# experimentalContext: rat, plasma, po, 10 mg/kg
propertyName: AUC(0-inf) (ng·h/mL)
Output spec: scalar in ng·h/mL, unitless text.

AUC(0-inf) recorded for this compound, CC(=O)O[C@H]1C(=O)[C@@]2(C)[C@H]([C@H](OC(=O)c3ccccc3)[C@]3(O)C[C@H](OC(=O)[C@H](O)[C@@H](NC(=O)c4ccccc4)c4ccccc4)C(C)=C1C3(C)C)[C@]1(OC(C)=O)CO[C@@H]1C[C@@H]2O [PTL, Paclitaxel] , is 2980

---

# assayProcedure: Pharmacokinetic study in albino rats
# Assay type: in vivo
# experimentalContext: rat, plasma, po, 10 mg/kg
propertyName: AUC(0-t) (ng·h/mL)
Output spec: scalar in ng·h/mL, unitless text.

AUC(0-t) recorded for this molecule, CC(=O)O[C@H]1C(=O)[C@@]2(C)[C@H]([C@H](OC(=O)c3ccccc3)[C@]3(O)C[C@H](OC(=O)[C@H](O)[C@@H](NC(=O)c4ccccc4)c4ccccc4)C(C)=C1C3(C)C)[C@]1(OC(C)=O)CO[C@@H]1C[C@@H]2O [PTL, Paclitaxel] , is 2830
